TESTED TARGET: T1, p97_PIM (Homo sapiens (Human), UniProt P55072)
T1 chain: TEDNDDDLYG
PROCEDURE SUMMARY: FP, FITC-Ahx peptide
MEASURE NAME: Kd (µM)
Give the value, in units of µM, as a plain number.

Observe how each entry below is paired with its result.
# BINDER, MEASURE NAME, MEAS VALUE
measured = [
    ("UBXN6_PUB (protein) STDPVAASIMKIYTFNKDQDRVKLGVDTIAKYLDNIHLHPEEEKYRKIKLQNKVFQERINCLEGTHEFFEAIGFQKVLLPAQDQEDPEEFYVLSETTLAQPQSLERHKEQLLAAE", "Kd", 27.1),
    ("HOIP_PUB (protein) MPGEEEERAFLVAREELASALRRDSGQAFSLEQLRPLLASSLPLAARYLQLDAARLVRCNAHGEPRNYLNTLSTALNILEKYGRNLLSPQRPRYWRGVKFNNPVFRSTVDAVQGGRDVLRLYGYTEEQPDGLSFPEGQEEPDEHQVATVTLEVLLLRTELSLLLQNTHPRQQALEQLLEDKVED", "Kd", 10.2),
]

Consider the binder PNGase_PUB (protein) GSASPAVAELCQNTPETFLEASKLLLTYADNILRNPNDEKYRSIRIGNTAFSTRLLPVRGAVECLFEMGFEEGETHLIFPKKASVEQLQKIRDLIAIER and give its measured Kd.
2.1

Entry source: paper PMC5031558
